Tested on: M. tuberculosis DNA gyrase GyrA, A90V
Format: cell-based, Mycobacterium tuberculosis
Measured MIC90, DNA gyrase GyrA, A90V accompanies every entry in the list below.

Compound smiles: Cc1nnc(-c2noc3c(F)c4c(cc23)CC2(C(=O)NC(=O)NC2=O)[C@H]2[C@H](C)O[C@H](C)CN42)o1
MIC90, DNA gyrase GyrA, A90V: 0.98 µM
//
Compound smiles: COc1c(N2C[C@@H]3CCCN[C@@H]3C2)c(F)cc2c(=O)c(C(=O)O)cn(C3CC3)c12
MIC90, DNA gyrase GyrA, A90V: 7.8 µM
//
Compound smiles: CO[C@H]1/C=C/O[C@@]2(C)Oc3c(C)c(O)c4c(O)c(c(/C=N/N5CCN(C)CC5)c(O)c4c3C2=O)NC(=O)/C(C)=C\C=C\[C@H](C)[C@H](O)[C@@H](C)[C@@H](O)[C@@H](C)[C@H](OC(C)=O)[C@@H]1C
MIC90, DNA gyrase GyrA, A90V: 0.0023 µM
//
Compound smiles: C[C@H]1COc2c(N3CCN(C)CC3)c(F)cc3c(=O)c(C(=O)O)cn1c23
MIC90, DNA gyrase GyrA, A90V: 16 µM
